# Tested on: Huh-7 cells
# test settings: read-out: Range of CC50 in cytotoxicity assay; cytotoxicity, class symbols
Could you please report measured CC50 for the items listed next?

Sample records with CC50:
IN: Lab note: need CC50 with Huh-7 cells for entry N#Cc1c(Nc2ccc(Br)c(C(F)(F)F)c2)s[nH]c1=O , please look it up.
OUT: > 50 µM

IN: Could you share what CC50 was measured for CCCC1CCC(c2ccc(Nc3s[nH]c(=O)c3C#N)cc2)CC1 (stereo not drawn) , tested on Huh-7 cells?
OUT: < 50 µM

IN: Provide the documented CC50 with Huh-7 cells as the system for N#Cc1c(Nc2ccc(Br)c(F)c2)s[nH]c1=O
OUT: > 50 µM

IN: Observed CC50 on Huh-7 cells for N#Cc1c(Nc2ccc(I)cc2Cl)s[nH]c1=O , please.
OUT: < 50 µM

IN: Short answer please: CC50, Huh-7 cells, entry COC(=O)c1ccc(Nc2s[nH]c(=O)c2C#N)cc1
OUT: > 50 µM

IN: Query for Huh-7 cells: what CC50 does the record show for N#Cc1c(Nc2ccc(Cl)cn2)s[nH]c1=O ?
OUT: > 50 µM

IN: Form: Entry = N#Cc1c(Nc2cccc(Br)n2)s[nH]c1=O | System = Huh-7 cells | CC50 = ____
OUT: > 50 µM

IN: Form field - read-out: CC50; system: Huh-7 cells; submitted item: N#Cc1c(Nc2ccc(Br)cn2)s[nH]c1=O
OUT: > 50 µM

Would you mind giving CC50 for every compound in the list below?
1. N#Cc1c(Nc2ccc(C(=O)c3ccccc3)cc2)s[nH]c1=O
2. CN(C)c1ccc2ccccc2c1Nc1s[nH]c(=O)c1C#N
3. N#Cc1c(Nc2ccc(I)c(Cl)c2)s[nH]c1=O
4. N#Cc1c(Nc2cc(Cl)nc(Cl)c2)s[nH]c1=O

OUT:
1. > 50 µM
2. > 50 µM
3. > 50 µM
4. < 50 µM
